# System: SF-268 CNS
Please reply with one of these outcomes: 1 (yes) (active), 0 (no) (inactive)

CCOC(=O)/C(C1=CC(=O)C(=O)c2ccccc21)=C(/C)NCc1ccccc1 ... 0 (no)
OC1CCC(Oc2cccc3cnc(Nc4ccc5nc[nH]c5c4)nc23)CC1 (stereo not drawn) ... 1 (yes)
CC/C=C\C[C@H](O)C/C=C1/C(=O)C=C[C@@H]1C/C=C\CCCC(N)=O ... 0 (no)
CCN(CC)CC(C)Nc1ccc(C)c2sc3ccccc3c(=O)c12 (stereo not drawn) ... 0 (no)
COc1cccc2c(=O)c3c(sc12)c(NCCCN)nc1ccccc13 ... 0 (no)
NS(=O)(=O)c1ccc(/C=C/c2cccc(O)c2)cc1 ... 0 (no)
C=C1C(=O)O[C@H]2[C@H]1CC/C(COC(=O)c1ccc(C(=O)O)s1)=C\CC[C@@]1(C)O[C@@H]21 ... 0 (no)
Cc1ccc2c(c1)sc(-c1ccc(N(C)C)cc1)[n+]2C ... 0 (no)

(Q) # fetch the recorded call for O=C(N/N=C/c1ccc(F)cc1)c1[nH]c2ccc(I)cc2c1-c1ccccc1 here
(A) 0 (no)

(Q) // query: OCC1OC(N2C=C(c3nc4ccccc4s3)C3C=CC=CC32)C(O)C1O (stereo not drawn)
(A) 0 (no)

(Q) // query: NC(N)=N/N=C/c1c(-c2cc(Cl)sc2Cl)nc2n1CCS2
(A) 0 (no)

(Q) // query: Cc1ccc(S(=O)(=O)NCCN2c3nc4ccccc4cc3Sc3cc4ccccc4nc32)cc1
(A) 0 (no)

(Q) // query: COC(=O)c1ccc2c(c1)c1c(C)c3cnccc3c(C)c1n2C
(A) 1 (yes)

---

# System: MDA-MB-435
In this section, each of the compounds is paired with its reported GI50.

Consider the following illustrative entries.
Cc1ccc(N2C(=O)C(Cl)=C(Nc3cccc(O)c3)C2=O)cc1Cl ... 16.6 µM
Cc1ccc(S(=O)(=O)NCCN2c3nc4ccccc4cc3Sc3cc4ccccc4nc32)cc1 ... > 100 µM
CC/C=C\C[C@H](O)C/C=C1/C(=O)C=C[C@@H]1C/C=C\CCCC(N)=O ... 1.72 µM
O=C1C=C(c2cc(Br)c(O)c(Br)c2)/C(=C/c2cc(Br)c(O)c(Br)c2)O1 ... 33.6 µM
C=C1C(O)C2C(=C(CC(C)C)C13CC3)C(=O)C(C)(C)C2OC (centres undefined) ... > 100 µM
COC(=O)c1ccc2c(c1)c1c(C)c3cnccc3c(C)c1n2C ... 0.0585 µM
O=Nc1c2cccnc2n2nnc3ccc(Cl)cc3c12 ... 2.65 µM
CCOC(=O)/C(C1=CC(=O)C(=O)c2ccccc21)=C(/C)NCc1ccccc1 ... 0.226 µM

Now for a further compound.
(Q) Recorded GI50 of NC(N)=N/N=C/c1c(-c2cc(Cl)sc2Cl)nc2n1CCS2 , please.
(A) 11.1 µM

---

# System: SF-295 CNS
# experiment.notes: NCI tumour cell line growth inhibition, 48 h
In this section, each of the compounds is paired with its reported log10(TGI).
Note: values are log10 of TGI expressed in µM.

NC(N)=N/N=C/c1c(-c2cc(Cl)sc2Cl)nc2n1CCS2 ... 1.23
COc1ccc2c(c1)CC[C@@H]1[C@@H]2CC[C@]2(C)/C(=N/OCCN3CCCCC3)CC[C@@H]12 ... 1.10
CC[C@@]1(OC(=O)CCC(=O)O)C(=O)OCc2c1cc1n(c2=O)Cc2cc3ccccc3nc2-1 ... 0.25
CC(Nc1cc(Cl)cc(Cl)c1)c1ccncc1 (stereo unspecified) ... 1.64

Now for a further compound.
(Q) Recorded log10(TGI) of COc1ccc(N=C/C=C/Nc2ccc(OC)cc2)cc1 , please.
(A) 1.33

---

# Test system: ACHN renal
# experiment.notes: NCI tumour cell line growth inhibition, 48 h
reported.endpoint: TGI (µM)
Supply the numeric figure in µM, leaving out any unit text.

COC(=O)c1c(O)ccc2c1c1c(n2C)C(=O)c2ccccc2C1=O ... 35.8

Now for a further molecule.
(Q) Recorded TGI of COC(=O)C(Cc1ccccc1)NC(=O)CNC(=O)CSc1nnc(COc2ccc(Cl)cc2)n1-c1ccccc1 (stereo not given) , please.
(A) 27.2

---

In this section, each of the compounds is paired with its reported TGI.
# System: SNB-75 CNS
# experiment.notes: NCI tumour cell line growth inhibition, 48 h

Consider the following illustrative entries.
CN(C)CN1C(=O)S/C(=C2\C(=O)N(CN(C)C)c3ccccc32)C1=O ... 74.5 µM
CCn1c2c(c3c(C(=O)OC)c(O)ccc31)C(=O)c1ccccc1C2=O ... 39.9 µM
CC1=C(C#N)S(=O)(=O)c2c(oc(C)c2C)N1 ... > 100 µM
Cc1c(C(=O)CC(=O)C(=O)NC2C3CC4CC(C3)CC2C4)[n+](=O)c2ccccc2n1[O-] (stereo unspecified) ... > 100 µM

(Q) Recorded TGI of Cn1c2ccccc2n2c3nc4ccccc4nc3c(C#N)c12 , please.
(A) > 100 µM

(Q) // query: CCOC(=O)/C(=C\c1ccc(CO)o1)P(=O)(OCC)OCC
(A) > 100 µM

(Q) // query: CN(C)CCOc1ccc(-c2c(Oc3ccc(Cl)cc3)c(=O)oc3ccccc23)cc1
(A) 25.3 µM

(Q) // query: S=C1CC(c2ccc(Cl)cc2)Sc2ccccc2N1 (stereo unspecified)
(A) > 10 µM

(Q) // query: NNC(=O)c1ccccc1NC(=O)/C(=C/c1ccccc1)NC(=O)c1ccccc1
(A) > 100 µM

(Q) // query: O=C1CC(O)c2c(Cl)sc(Cl)c21 (stereo unspecified)
(A) 29.5 µM

(Q) // query: O=c1oc2c3ccc4ccccc4c3n(Cc3nc4ccccc4[nH]3)c2c2ccccc12
(A) > 87.7 µM

---

Below are GI50 values measured for SNB-19 CNS.

O=C(/C=C/c1ccc([N+](=O)[O-])o1)NNC(=O)c1cc2ccccc2cc1O ... 4.6 µM

(Q) GET /values?readout=GI50&system=SNB-19 CNS&item= CC/C=C\C[C@H](O)C/C=C1/C(=O)C=C[C@@H]1C/C=C\CCCC(N)=O
(A) 7.43 µM

(Q) // query: O=C1NC(=O)C(c2ccccc2Cl)=C1Nc1cccc(O)c1
(A) 21.4 µM

---

# Test system: OVCAR-8 ovarian
# experiment.notes: NCI tumour cell line growth inhibition, 48 h
reported.endpoint: TGI

Consider the following illustrative entries.
NC(N)=NNC(=O)C(=O)O ... > 100 µM
CC1=C(C#N)S(=O)(=O)c2c(oc(C)c2C)N1 ... > 100 µM
O=C1CSC2(CCN(CCCN3c4ccccc4Sc4ccc(Cl)cc43)CC2)N1 ... 23.8 µM
C=CCN(N=O)C(=O)N(CCC)CCCC(NC(C)=O)C(=O)NCc1ccccc1 (configuration not stated) ... > 100 µM
c1cncc(C2c3[nH]c4ccccc4c3CCN2CCN2CCCCC2)c1 (configuration not stated) ... > 100 µM

(Q) Recorded TGI of COc1ccc(N=C/C=C/Nc2ccc(OC)cc2)cc1 , please.
(A) 9.9 µM

(Q) // query: Cc1nc2ccccc2n1CCc1nc2ccccc2s1
(A) > 100 µM

(Q) // query: O=C(O)C(Cc1cccs1)C(=O)O
(A) > 100 µM

(Q) // query: Cc1nc2c(Br)cc(Br)cc2c(=O)n1-c1ccccc1N
(A) > 100 µM

(Q) // query: Cc1c2ncccc2c(C)c2c1[nH]c1ccccc12
(A) 27.8 µM

(Q) // query: Cc1cc(O)cc(C)c1/C=C/c1cncc(C(=O)N(C)C)c1
(A) > 25 µM

(Q) // query: CCOC(=O)/C=C(/CN1C(=O)c2ccccc2C1=O)c1ccccc1
(A) > 100 µM

---

# System: K-562 leukemia
# experiment.notes: NCI tumour cell line growth inhibition, 48 h
In this section, each of the compounds is paired with its reported TGI.

Consider the following illustrative entries.
COC(=O)c1ccc(OCc2ccc3oc(=O)c(-c4ccccc4)nc3c2)cc1 ... > 100 µM
O=C(CCCC(=O)N1CC(CCl)c2ccc([N+](=O)[O-])cc21)N1CC(CCl)c2ccc([N+](=O)[O-])cc21 (stereo unspecified) ... > 100 µM

(Q) Recorded TGI of C=C[C@H]1CN2CC[C@H]1C[C@@H]2[C@@H](O)c1ccnc2ccccc12 , please.
(A) > 100 µM

(Q) // query: COC(=O)/C(=N/NC(C)(C)C)C(C(=O)C=C(C)C)C(=O)C(=O)Nc1ccc(Cl)cc1C (stereo unspecified)
(A) > 100 µM

(Q) // query: CCN(CC)CCNc1ccc(N=Nc2ccc(S(N)(=O)=O)cc2)c2ccccc12
(A) > 100 µM

(Q) // query: Cc1cc(O)cc(C)c1/C=C/c1cncc(C(=O)N(C)C)c1
(A) > 25 µM

(Q) // query: C/C(=N/O)c1cccc(Nc2nc3ccccc3c3[nH]c4ccccc4c23)c1
(A) 10.6 µM

(Q) // query: O=C(c1ccco1)N(C(=S)N1CCN(c2ccccc2)CC1)c1ccccc1
(A) > 100 µM
